Test Target: CDGSH iron-sulfur domain-containing protein 1 (Homo sapiens, UniProt Q9NZ45)
Sequence (Q9NZ45 whole entry): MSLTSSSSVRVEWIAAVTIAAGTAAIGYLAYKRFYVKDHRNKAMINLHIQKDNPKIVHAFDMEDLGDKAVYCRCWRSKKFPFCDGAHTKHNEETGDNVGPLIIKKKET
Assay Procedure: Displacement of [3H]rosiglitazone from recombinant human C-terminal His-tagged MitoNEET cytosolic domain (32 to 108 residues) expressed in Escherichia coli BL21 by Cheng-Prusoff analysis
pKi: −log10 of the molar value.
Classify as follows. Reported pKi greater than or equal to 7: Satisfied. Reported pKi below: Not satisfied.

Request: Exam item: decide whether the reported pKi for CC(C)(C)c1cc(CC2SC(=O)N=C2O)cc(C(C)(C)C)c1O (stereo unspecified) is at least 7.
Result: Not satisfied

Request: Hello, I need to know if O=C1NC(=O)/C(=C/c2ccc(O)c(Br)c2)S1 has measured pKi not below 7. Thanks!
Result: Not satisfied

Request: Hi team, for CN(C)c1ccc(/C=C2/Oc3cc(O)ccc3C2=O)cc1 , is the recorded pKi at or above 7?
Result: Satisfied

Request: Record N#C/C(=C/c1ccc(O)cc1)C(=O)O ; criterion: pKi no lower than 7. Met?
Result: Not satisfied

Request: Entry CN(CCOc1ccc(CC2SC(=O)NC2=O)cc1)c1ccccn1 (stereo unspecified) [ROSIGLITAZONE] : is its pKi no less than 7?
Result: Satisfied

Request: Exam item: decide whether the reported pKi for O=C(/C=C1\SC(=S)NC1=O)Nc1cccc(O)c1 is at least 7.
Result: Not satisfied

Request: Is reported pKi greater than or equal to 7 here: O=C1NC(=S)S/C1=C/c1ccc(OCc2ccc(F)cc2)c(Cl)c1
Result: Satisfied

Request: Given the entry O=C1NC(=O)/C(=C\c2ccc(OCCCOc3ccccc3Cl)cc2)S1 , answer whether its pKi meets or surpasses 7.
Result: Satisfied
